SYSTEM: T1, huFLT3-T227 stably expressed on Ramos cells (human, UniProt P36888 27-993)
T1 construct: whole, on cells; also called FLT3 WT
METHOD NOTES: FACS on cells
MEASURED PROPERTY: FACS geometric mean fold change over Jurkat parental

BINDER	VALUE MEASURED
Polypeptide No. 212 (scFv, V domains shown, scFv) VH: QVQLVQSGAEVKKPGSSVKVSCKASGYTFTGYYMHWVRQAPGQGLEWMGGIIPILGTANNAQKFQGRVTITADESTSTAYMELSSLRSEDTAVYYCARAPWGTFDYWGQGTLVTVSS VL: EIVMTQSPATLSVSPGERATLSCRASQSVSSSQLAWYQQKPGQAPRLLIYDTSTRATGIPARFSGSGSGTEFTLTISSLQSEDFAVYYCQQYDNSLWTFGQGTRLEIKR	10 to 30 fold
Polypeptide No. 256 (scFv, V domains shown, scFv) VH: QVQLVQSGAEVKKPGASVKVSCKASGYTFATYYLHWVRQAPGQGLEWMGMINPSGGSTIYAQKFQGRVTMTRDTSTSTVYMELSSLRSEDTAVYYCARSSGYDFFDYWGQGTLVTVSS VL: DIQMTQSPSSLSASVGDRVTITCRASHDINNYLNWYQQKPGKAPKLLIYDASNLETGVPSRFSGSGSGTDFTLTISSLQPEDFATYYCQQADSFPLTFGGGTKVEIKR	> 30 fold
Polypeptide No. 219 (scFv, V domains shown, scFv) VH: QVQLVQSGAEVKKPGASVKVSCKASGYTFTNYYMHWVRQAPGQGLEWMGIINPSSGSASYTQKLQGRVTMTRDTSTSTVYMELSSLRSEDTAVYYCARDRSTLVPLDYWGQGTLVTVSS VL: DIQMTQSPSSLSASVGDRVTITCRASQGIRSELSWYQQKPGKAPKLLIYKASSLESGVPSRFSGSGSGTDFTLTISSLQPEDFATYYCLQHNSYPLTFGGGTKVEIKR	10 to 30 fold

Please turn your attention to the following entry.
Please look up its FACS geometric mean fold change over Jurkat parental: Polypeptide No. 246 (scFv, V domains shown, scFv) VH: QVQLVQSGAEVKKPGSSVKVSCKASGGTFTSYFMHWVRQAPGQGLEWMGGIIPMFGAPVYAQDFQGRVTITADESTSTAYMELSSLRSEDTAVYYCAAGLDFWSGPDNYYMDVWGKGTTVTVSS VL: DIQMTQSPSSLSASVGDRVTITCQATQDISNYLNWYQQKPGKAPKLLIYGASNLPSGVPSRFSGSGSGTDFTLTISSLQPEDFATYYCQQSYSDLLTFGPGTKVDIKR
10 to 30 fold
